TARGET: T1, extracellular domain of rhesus monkey BCMA (rhesus monkey, UniProt F7FFA0 1-53)
T1 construct: extracellular domain; also called RhBCMA
T1 sequence (F7FFA0 entry or part of it): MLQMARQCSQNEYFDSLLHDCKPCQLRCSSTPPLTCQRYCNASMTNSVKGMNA
EXPERIMENT_DESCRIPTION: Octet BLI; Fab 200 nM
pKd: −log10 of the molar value.

| BINDER | pKd |
| --- | --- |
| AB200-(2Vk31)_R2-VH-v5 (Fab, V domains shown) VH: QVQLVQSGAEVKKPGSSVKVSCKASGGTFTNYWIHWVRQAPGQGLEWMGGTYRSHSDTYYNEKFKSRVTITADKSTSTAYMELSSLRSEDTAVYYCARGAIFHGYDVIDNWGQGTLVTVSS VL: DIQMTQSPSSLSASVGDRVTITCRASQSISSYLNWYQQKPGKAPKLLIYATSNLQIGVPSRFSGSGSGTDFTLTISSLQPEDFATYYCQQFRRLPWTFGQGTKLEIKR | 7.98 |
| AB200-(2Vk31)_R2-VH-v42 (Fab, V domains shown) VH: QVQLVQSGAEVKKPGSSVKVSCKASGGTFTNYWIHWVRQAPGQGLEWMGGTYRIHSDTYYNQKYKSRVTITADKSTSTAYMELSSLRSEDTAVYYCARGAIFHGYDVIDNWGQGTLVTVSS VL: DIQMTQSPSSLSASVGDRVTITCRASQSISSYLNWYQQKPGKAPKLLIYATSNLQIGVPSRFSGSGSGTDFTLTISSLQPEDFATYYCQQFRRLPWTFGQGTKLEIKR | 7.63 |
| AB200-(2Vk31)_R2-VH-v3 (Fab, V domains shown, also called AB200_VH2-03_VK2-31) VH: QVQLVQSGAEVKKPGSSVKVSCKASGGTFTNYWIHWVRQAPGQGLEWMGGTYRSHSTTYYNQKFKSRVTITADKSTSTAYMELSSLRSEDTAVYYCARGAVYHGYDVIDNWGQGTLVTVSS VL: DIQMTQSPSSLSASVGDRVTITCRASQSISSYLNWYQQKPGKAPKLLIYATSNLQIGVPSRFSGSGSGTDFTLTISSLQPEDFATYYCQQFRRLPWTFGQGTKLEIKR | 8.24 |
| AB200-(2Vk31)_R2-VH-v12 (Fab, V domains shown) VH: QVQLVQSGAEVKKPGSSVKVSCKASGGTYSNYWIHWVRQAPGQGLEWMGATYRSHSTTYYNQKYKSRVTITADKSTSTAYMELSSLRSEDTAVYYCARGAIYHGFDVIDNWGQGTLVTVSS VL: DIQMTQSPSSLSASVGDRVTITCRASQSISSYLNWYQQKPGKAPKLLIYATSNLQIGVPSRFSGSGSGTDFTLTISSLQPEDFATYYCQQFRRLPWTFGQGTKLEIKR | 7.74 |
| AB200-(2Vk31)_R2-VH-v18 (Fab, V domains shown) VH: QVQLVQSGAEVKKPGSSVKVSCKASGGSFSNYWIHWVRQAPGQGLEWMGATYRSHSDTYYAEKFKSRVTITADKSTSTAYMELSSLRSEDTAVYYCARGAVYHGYDVIDNWGQGTLVTVSS VL: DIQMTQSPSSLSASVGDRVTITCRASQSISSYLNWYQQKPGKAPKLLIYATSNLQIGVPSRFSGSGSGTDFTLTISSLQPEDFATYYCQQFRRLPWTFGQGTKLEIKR | 7.83 |

Hello, the source for this data is patent US20240327535A1, in case you need it.
